Tested on: HARA
Test Summary: relative viability (nuclei count vs DMSO), 5 days (fraction); higher = more cells survive
Assay Context: first compound 0.3162 µM
Catalogue of relative viability values
Please give the numeric answer without any surrounding text.

| Compound | relative viability |
| --- | --- |
| NC(=O)Nc1cc(-c2cccc(F)c2)sc1C(=O)N[C@H]1CCCNC1 [AZD7762] + O=C(c1cc(Cc2n[nH]c(=O)c3ccccc23)ccc1F)N1CCN(C(=O)C2CC2)CC1 [Olaparib] (partner 8 µM) | 0.301 |
| NC(=O)Nc1cc(-c2cccc(F)c2)sc1C(=O)N[C@H]1CCCNC1 [AZD7762] + Cc1cc(Nc2cc(N3CCN(C)CC3)nc(Sc3ccc(NC(=O)C4CC4)cc3)n2)n[nH]1 [Tozasertib] (partner 0.1 µM) | 0.103 |
| NC(=O)Nc1cc(-c2cccc(F)c2)sc1C(=O)N[C@H]1CCCNC1 [AZD7762] + CC(C)C[C@H](NC(=O)[C@H](Cc1ccccc1)NC(=O)c1cnccn1)B(O)O [Bortezomib] (partner 0.002 µM) | 1.13 |

Now consider the entry below.
Ask: What measured relative viability goes with NC(=O)Nc1cc(-c2cccc(F)c2)sc1C(=O)N[C@H]1CCCNC1 [AZD7762] + N=C(N)NC(=N)NCCc1ccccc1 [Phenformin] (partner 250 µM) ?
Reply: 0.282

###

Tested on: NCI-H1993
Test Summary: relative viability (nuclei count vs DMSO), 5 days (fraction); higher = more cells survive
Assay Context: first compound 0.8 µM
Here, each record is paired with measured relative viability data.
Number, no unit, nothing else.

| Molecule | relative viability |
| --- | --- |
| C=C1C(=O)O[C@@H](CCCCCCCC)[C@@H]1C(=O)O [C-75] + Cc1nc(NC(=O)N2CCC[C@H]2C(N)=O)sc1-c1ccnc(C(C)(C)C(F)(F)F)c1 [Alpelisib] (partner 2 µM) | 0.66 |
| Oc1nc(-c2ccc(C(F)(F)F)cc2)nc2c1CSCC2 [XAV939] + COc1cccc2cc(-c3nc([C@H]4CC[C@H](C(=O)O)CC4)n4ncnc(N)c34)[nH]c12 [OSI-027] (partner 0.5 µM) | 0.596 |

Ask: // relative viability lookup, key: C=C1C(=O)O[C@@H](CCCCCCCC)[C@@H]1C(=O)O [C-75] + N=C(N)NC(=N)NCCc1ccccc1 [Phenformin] (partner 250 µM)
Reply: 0.476

###

Test system: HARA
Test Summary: relative viability (nuclei count vs DMSO), 5 days (fraction); higher = more cells survive
Assay Context: first compound 0.1581 µM
Rule for this label: TRUE means relative viability is less than 0.6; FALSE means relative viability is at least 0.6.

| Molecule | Label Class |
| --- | --- |
| CC1(C)CCC(c2ccc(Cl)cc2)=C(CN2CCN(c3ccc(C(=O)NS(=O)(=O)c4ccc(N[C@H](CCN5CCOCC5)CSc5ccccc5)c(S(=O)(=O)C(F)(F)F)c4)cc3)CC2)C1 [Navitoclax] + CC(=O)c1c(C)c2cnc(Nc3ccc(N4CCNCC4)cn3)nc2n(C2CCCC2)c1=O [Palbociclib] (partner 0.5 µM) | TRUE |
| CC1(C)CCC(c2ccc(Cl)cc2)=C(CN2CCN(c3ccc(C(=O)NS(=O)(=O)c4ccc(N[C@H](CCN5CCOCC5)CSc5ccccc5)c(S(=O)(=O)C(F)(F)F)c4)cc3)CC2)C1 [Navitoclax] + C[C@]1(O)C[C@@H](c2nc(-c3ccc4ccc(-c5ccccc5)nc4c3)c3c(N)nccn32)C1 [Linsitinib] (partner 1 µM) | FALSE |
| CC1(C)CCC(c2ccc(Cl)cc2)=C(CN2CCN(c3ccc(C(=O)NS(=O)(=O)c4ccc(N[C@H](CCN5CCOCC5)CSc5ccccc5)c(S(=O)(=O)C(F)(F)F)c4)cc3)CC2)C1 [Navitoclax] + Nc1ncn([C@H]2C[C@H](O)[C@@H](CO)O2)c(=O)n1 [Decitabine] (partner 2 µM) | FALSE |

Next item in the queue.
Ask: Input CC1(C)CCC(c2ccc(Cl)cc2)=C(CN2CCN(c3ccc(C(=O)NS(=O)(=O)c4ccc(N[C@H](CCN5CCOCC5)CSc5ccccc5)c(S(=O)(=O)C(F)(F)F)c4)cc3)CC2)C1 [Navitoclax] + COc1cccc2cc(-c3nc([C@H]4CC[C@H](C(=O)O)CC4)n4ncnc(N)c34)[nH]c12 [OSI-027] (partner 0.5 µM) ; condition: relative viability strictly below 0.6. Does it hold?
Reply: FALSE
